Tested on: PCSK9 gene splice site
Format: cell-based, cynomolgus monkey
Catalogue of molecules with associated Cynomolgous Primary Hepatocytes-splice site editing % 1250 ng/mL
Reply with the number and its unit after it.

Worked cases, Cynomolgous Primary Hepatocytes-splice site editing % 1250 ng/mL given:
GA081: PCSK9 gRNA for ABE8.8 splice site editing, Human/Cyno (nucleic acid, listed as RNA; modified_base 1: mod_base = OTHER; note = 2'-O-Methyl-uridine phosphorothioate; modified_base 2: mod_base = OTHER; modified_base, PCSK9 gRNA for ABE8.8 splice site editing, Human/Cyno) guide: TTTCCAGGTCATCACAGTTGGTTTTAGAGCTAGAAATAGCAAGTTAAAATAAGGCTAGTCCGTTATCAACTTGAAAAAGTGGCACCGAGTCGGTGCTTTT = 0.3%
GA074: PCSK9 gRNA; protospacer TGCTTACCTGTCTGTGGAAG (SEQ ID NO: 68), splice donor of intron 4 (nucleic acid, listed as RNA; modified_base 1: mod_base = OTHER; note = 2'-O-Methyl-uridine phosphorothioate; modified_base 2: mod_base = OTHER; note = 2'-O-Methyl-guanosine phosphorothioate; modified_ba) guide: TGCTTACCTGTCTGTGGAAGGTTTTAGAGCTAGAAATAGCAAGTTAAAATAAGGCTAGTCCGTTATCAACTTGAAAAAGTGGCACCGAGTCGGTGCTTTT = 17.5%

Proceeding to the next molecule to report its Cynomolgous Primary Hepatocytes-splice site editing % 1250 ng/mL.
What does the data say about its Cynomolgous Primary Hepatocytes-splice site editing % 1250 ng/mL? Entry: GA087: PCSK9 gRNA for ABE8.8 splice site editing, Human/Cyno (nucleic acid, 2'-O-methyl at 1, 2, other sugars and backbone not given here; further chemistry not fully specified, PCSK9 gRNA for ABE8.8 splice site editing, Human/Cyno) guide: UCACCTGCTCCTGAGGGGCCGTTTTAGAGCTAGAAATAGCAAGTTAAAATAAGGCTAGTCCGTTATCAACTTGAAAAAGTGGCACCGAGTCGGTGCTTTT 0.2%
